# System: NCI-H2085
# experiment: relative viability (nuclei count vs DMSO), 5 days (fraction); higher = more cells survive
# assayConditions: first compound 1.265 µM
Known relative viability of a selection of compounds
Could you respond with only the numeric value?

COc1cc(N2CCC(C(N)=O)CC2)ccc1Nc1nc(N)c(Cl)c(Nc2ccccc2S(=O)(=O)C(C)C)n1 [HG-5-88-01] + N=C(N)NC(=N)NCCc1ccccc1 [Phenformin] (partner 250 µM) | 0.622

Field request: relative viability | item: COc1cc(N2CCC(C(N)=O)CC2)ccc1Nc1nc(N)c(Cl)c(Nc2ccccc2S(=O)(=O)C(C)C)n1 [HG-5-88-01] + C[C@]1(O)C[C@@H](c2nc(-c3ccc4ccc(-c5ccccc5)nc4c3)c3c(N)nccn32)C1 [Linsitinib] (partner 1 µM)
0.748

Ref: the supplement of paper PMC10307832
